Where these numbers come from: the kinase profiling compilation of Christmann-Franck et al. (2016)

biological target: RPS6KA6 KD1 KD2 (human) (UniProt Q9UK32); experiment: radiometric filter-binding kinase assay, Kinase HotSpot; settings: compound 0.5 µM; ATP 10 µM
Sequence (Q9UK32 whole entry, looked up): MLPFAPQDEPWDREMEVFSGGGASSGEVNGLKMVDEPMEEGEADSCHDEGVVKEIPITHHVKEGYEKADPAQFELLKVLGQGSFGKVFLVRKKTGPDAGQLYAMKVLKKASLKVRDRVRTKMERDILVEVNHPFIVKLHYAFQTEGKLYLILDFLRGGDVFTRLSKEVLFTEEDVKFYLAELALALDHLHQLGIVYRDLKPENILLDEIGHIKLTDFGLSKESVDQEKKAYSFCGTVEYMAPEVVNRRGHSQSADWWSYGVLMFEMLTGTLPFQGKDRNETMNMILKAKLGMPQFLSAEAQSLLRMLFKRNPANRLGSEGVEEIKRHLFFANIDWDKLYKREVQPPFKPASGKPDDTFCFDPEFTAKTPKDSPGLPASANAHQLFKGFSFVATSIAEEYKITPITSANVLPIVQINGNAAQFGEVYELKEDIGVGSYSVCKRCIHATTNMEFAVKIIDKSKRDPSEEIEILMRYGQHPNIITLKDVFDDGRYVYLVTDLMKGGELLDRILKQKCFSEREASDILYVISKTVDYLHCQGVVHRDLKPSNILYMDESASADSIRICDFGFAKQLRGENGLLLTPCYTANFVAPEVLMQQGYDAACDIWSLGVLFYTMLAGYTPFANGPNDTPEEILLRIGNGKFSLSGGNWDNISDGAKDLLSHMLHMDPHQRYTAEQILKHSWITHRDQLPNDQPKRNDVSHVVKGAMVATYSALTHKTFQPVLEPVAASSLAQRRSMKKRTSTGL
# note: exactly 90% is not below, so it is f; use t for residual activity strictly under it

Please review the entries below; each comes with its answer.
compound_string	assigned_label
O=c1[nH]c2ccccc2n1C1CCN(Cc2ccc(-c3nc4cc5[nH]cnc5cc4nc3-c3ccccc3)cc2)CC1	f
COc1cc2ncnc(Nc3ccc(O)c(Br)c3)c2cc1OC	t
Cc1cc(Nc2nc(-c3ccccc3)nc3ccccc23)n[nH]1	t

Please check: residual activity for `FC(F)(F)c1ccc(/C=C/c2nc(COc3ccc(CCCCn4ccnn4)cc3)co2)cc1` , strictly under 90% or not?
f

Please check: residual activity for `O=c1c2ccccc2[nH]c(=S)n1CCN1CCC(=C(c2ccc(F)cc2)c2ccc(F)cc2)CC1` , strictly under 90% or not?
f

Please check: residual activity for `Cn1cc(/C=C2\C(=O)Nc3ccc(S(N)(=O)=O)cc32)c2ccccc21` , strictly under 90% or not?
t

Please check: residual activity for `N/C(=N\N=C/c1ccc(-c2cccc([N+](=O)[O-])c2)o1)N[N+](=O)[O-]` , strictly under 90% or not?
f

Please check: residual activity for `COc1cc2c(cc1OC)-c1[nH]nc(Nc3cccc(F)c3)c1C2` , strictly under 90% or not?
f
